From: patent US10857227B2

- Test system: total splenocytes restimulated with MHC class-1 epitope KVPRNQDWL (human gp100)
- Type: in vivo, C57-B16 mice
- condition-details: 10 μg hgp100 epitope co-incubated with melanin precursor, pH 8.5 Tris, 18 hours oxygen; + 10 μg CpG-28; subcutaneous
measured-parameter: CD8 immune response with various melanin precursors

molecule="NCCc1ccc(O)c(O)c1 [Dopamine]" measured_value="reduced magnitude"
molecule="CC(C)(C)OC(=O)N[C@@H](Cc1ccc(O)c(O)c1)C(=O)O [Boc-Dopa, N-(tert-Butyloxycarbonyl)-L-dopa]" measured_value="reduced magnitude"
